These entries and their values trace back to paper PMC12269619.

# tgt: P3-45
# procedure-text: BLI
Ends that are not written are not given here.
reported-metric: pKd
Please note pKd is a logarithmic value: minus log10 of concentration in mol/L. Answer with that number alone.

Briefly, pKd measured for NPDPNANPNVDPNAN (also: biotinylated, position not given here) [Biotinylated junctional peptide Pep21 (PfCSP peptide 21)] : 7.72
